Biological target: T1, RNase P protein (TmP, P protein) (Thermotoga maritima, UniProt Q9X1H4 1-117)
T1 sequence: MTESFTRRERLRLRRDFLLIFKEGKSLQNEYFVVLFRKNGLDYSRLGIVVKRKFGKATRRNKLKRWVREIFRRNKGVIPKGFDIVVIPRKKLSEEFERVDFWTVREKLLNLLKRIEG
Test: BLI; 10 mM Mg2+, 5% DMSO; BLI (Octet RED96): 20 mM HEPES pH 7.4, 100 mM ammonium acetate, 10 mM MgCl2, 2.5-5% DMSO, 30 C; P protein:P RNA in 33 mM Tris, 66.6 mM HEPES, 200 mM ammonium acetate, 10 mM MgCl2, pH 7.4
Conditions: protein: recombinant; tags: N-terminal His6 (GST fusion cleaved with TEV); single strand
pKd: −log10 of the molar value.
parameter: pKd

[[record]]
binder = "GGAAAAAGAU (ssRNA) [5' RNA leader (10 nt)]"
valuemeasured = 7.45

